# SYSTEM TESTED: Full length human recombinant PIKFYVE (Homo sapiens (Human), UniProt Q9Y2I7)
# Sequence (Q9Y2I7 whole entry): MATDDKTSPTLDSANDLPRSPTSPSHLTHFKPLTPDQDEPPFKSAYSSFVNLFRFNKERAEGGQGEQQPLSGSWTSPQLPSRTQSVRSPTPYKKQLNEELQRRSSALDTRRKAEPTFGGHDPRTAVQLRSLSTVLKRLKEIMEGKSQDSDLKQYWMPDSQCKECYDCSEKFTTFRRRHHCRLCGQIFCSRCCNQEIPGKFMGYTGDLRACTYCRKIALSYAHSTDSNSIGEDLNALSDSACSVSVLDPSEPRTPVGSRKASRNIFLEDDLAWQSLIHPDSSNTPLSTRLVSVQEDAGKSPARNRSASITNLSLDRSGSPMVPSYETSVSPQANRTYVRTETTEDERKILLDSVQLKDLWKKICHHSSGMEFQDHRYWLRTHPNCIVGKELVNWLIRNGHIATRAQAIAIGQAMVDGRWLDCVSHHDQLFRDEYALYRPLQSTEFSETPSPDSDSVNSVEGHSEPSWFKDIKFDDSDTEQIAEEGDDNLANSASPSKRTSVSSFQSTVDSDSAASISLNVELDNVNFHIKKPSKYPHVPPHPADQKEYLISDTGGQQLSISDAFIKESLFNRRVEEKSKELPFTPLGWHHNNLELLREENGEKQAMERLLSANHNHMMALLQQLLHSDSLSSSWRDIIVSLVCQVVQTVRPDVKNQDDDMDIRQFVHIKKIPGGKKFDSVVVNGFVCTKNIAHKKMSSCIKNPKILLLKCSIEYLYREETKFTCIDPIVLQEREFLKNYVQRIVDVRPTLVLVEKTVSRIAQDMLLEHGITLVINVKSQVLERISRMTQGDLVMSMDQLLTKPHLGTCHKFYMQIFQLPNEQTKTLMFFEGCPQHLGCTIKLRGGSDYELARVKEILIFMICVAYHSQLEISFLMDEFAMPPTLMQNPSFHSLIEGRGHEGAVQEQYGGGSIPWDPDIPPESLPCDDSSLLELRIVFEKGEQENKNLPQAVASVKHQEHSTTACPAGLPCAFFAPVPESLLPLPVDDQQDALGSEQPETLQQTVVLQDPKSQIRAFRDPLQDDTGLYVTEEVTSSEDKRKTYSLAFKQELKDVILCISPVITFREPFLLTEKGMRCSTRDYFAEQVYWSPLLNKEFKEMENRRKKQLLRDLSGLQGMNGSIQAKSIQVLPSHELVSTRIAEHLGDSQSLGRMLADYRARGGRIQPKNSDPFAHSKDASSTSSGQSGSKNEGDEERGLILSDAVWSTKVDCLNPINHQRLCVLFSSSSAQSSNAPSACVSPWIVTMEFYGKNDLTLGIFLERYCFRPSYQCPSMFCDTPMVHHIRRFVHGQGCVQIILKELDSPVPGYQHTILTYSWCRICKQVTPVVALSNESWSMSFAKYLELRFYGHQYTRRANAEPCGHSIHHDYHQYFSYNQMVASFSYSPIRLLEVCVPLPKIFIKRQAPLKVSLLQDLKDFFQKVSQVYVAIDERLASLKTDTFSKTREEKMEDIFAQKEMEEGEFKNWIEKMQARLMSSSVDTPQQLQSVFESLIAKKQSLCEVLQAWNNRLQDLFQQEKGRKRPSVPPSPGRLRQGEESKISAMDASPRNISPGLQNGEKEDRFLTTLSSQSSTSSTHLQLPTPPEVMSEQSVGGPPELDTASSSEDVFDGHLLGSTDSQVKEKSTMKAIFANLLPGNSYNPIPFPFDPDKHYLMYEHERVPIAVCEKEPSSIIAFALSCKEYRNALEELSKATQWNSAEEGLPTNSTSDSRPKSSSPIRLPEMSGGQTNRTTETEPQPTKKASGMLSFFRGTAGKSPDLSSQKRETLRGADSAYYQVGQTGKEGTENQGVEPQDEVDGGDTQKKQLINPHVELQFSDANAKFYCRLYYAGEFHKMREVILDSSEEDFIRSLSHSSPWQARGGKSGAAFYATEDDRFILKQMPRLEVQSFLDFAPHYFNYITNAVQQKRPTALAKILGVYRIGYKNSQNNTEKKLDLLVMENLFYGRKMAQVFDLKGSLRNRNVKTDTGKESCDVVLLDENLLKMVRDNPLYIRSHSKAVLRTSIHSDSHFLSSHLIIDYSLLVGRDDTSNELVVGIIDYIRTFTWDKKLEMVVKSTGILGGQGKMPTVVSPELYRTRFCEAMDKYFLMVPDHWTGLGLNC
# PROTOCOL: Inhibition of PIKfyve (microfluidic electrophoresis kinase assay)
# TEST CONDITIONS: 2 nM enzyme, PI3P/PS substrate, 3 h at room temperature, 12 concentrations
pIC50: −log10 of the molar value.
TEST READOUT: pIC50

Look over these answered cases.
>  <SMILES>
Cc1cc(-c2ccn(-c3cc(N4CCOCC4)n4nc(-c5cc(C)n(CCN(C)C)n5)cc4n3)n2)ccn1

>  <TEST READOUT>
pIC50

>  <EXPERIMENTAL VALUE>
< 5.00

$$$$
>  <SMILES>
Cc1cnn(-c2cc(N3CCOCC3)n3nc(-c4ccncc4)cc3n2)c1

>  <TEST READOUT>
pIC50

>  <EXPERIMENTAL VALUE>
< 5.00

$$$$

Then there is this molecule:
Req: Data request, read-out pIC50, for `Clc1cccc(-c2ccn(-c3cc(N4CCOCC4)n4nc(-c5cccnc5)cc4n3)n2)c1`
Resp: < 5.00

----------
# SYSTEM TESTED: Full length human recombinant PIKFYVE (Homo sapiens (Human), UniProt Q9Y2I7)
# PROTOCOL: Inhibition of PIKfyve (microfluidic electrophoresis kinase assay)
# TEST CONDITIONS: 2 nM enzyme, PI3P/PS substrate, 3 h at room temperature, 12 concentrations
pIC50: −log10 of the molar value.
TEST READOUT: pIC50

>  <SMILES>
Cc1cccc(-c2ccn(-c3cc(N4CCOCC4)n4nc(C(=O)N[C@@H]5CCN(C)C5)cc4n3)n2)c1

>  <SYSTEM TESTED>
Full length human recombinant PIKFYVE (Homo sapiens (Human), UniProt Q9Y2I7)

>  <pIC50>
6.95

$$$$
>  <SMILES>
Nc1nccc(-c2cc3nc(-n4ccc(-c5ccccc5)n4)cc(N4CCOCC4)n3n2)n1

>  <SYSTEM TESTED>
Full length human recombinant PIKFYVE (Homo sapiens (Human), UniProt Q9Y2I7)

>  <pIC50>
6.97

$$$$
>  <SMILES>
Cc1cccc(-c2ccn(-c3cc(N4CCOCC4)n4nc(C(=O)N5CCC56COC6)cc4n3)n2)c1

>  <SYSTEM TESTED>
Full length human recombinant PIKFYVE (Homo sapiens (Human), UniProt Q9Y2I7)

>  <pIC50>
6.95

$$$$
>  <SMILES>
Cc1cccc(-c2ccn(-c3cc(N4CCOCC4)n4nc(C(=O)N(C)C5CC5)cc4n3)n2)c1

>  <SYSTEM TESTED>
Full length human recombinant PIKFYVE (Homo sapiens (Human), UniProt Q9Y2I7)

>  <pIC50>
6.79

$$$$
>  <SMILES>
Nc1ncc(-c2cc3nc(-n4ccc(-c5ccccc5)n4)cc(N4CCOCC4)n3n2)cn1

>  <SYSTEM TESTED>
Full length human recombinant PIKFYVE (Homo sapiens (Human), UniProt Q9Y2I7)

>  <pIC50>
6.84

$$$$

P. Cc1cccc(-c2ccn(-c3cc(N4CCOCC4)n4nc(C(=O)N5CCCCC5)cc4n3)n2)c1
Q. Nc1cc(-c2ccccc2)nn1-c1cc(N2CCOCC2)n2nc(-c3ccncc3)cc2n1
Req: Identify the entry with the smaller pIC50: P or Q . // return label of chosen record
Resp: P
(P: 6.61, Q: 7.42)

----------
# SYSTEM TESTED: Full length human recombinant PIKFYVE (Homo sapiens (Human), UniProt Q9Y2I7)
# PROTOCOL: Inhibition of PIKfyve (microfluidic electrophoresis kinase assay)
# Format: biochemical
# TEST CONDITIONS: 2 nM enzyme, PI3P/PS substrate, 3 h at room temperature, 12 concentrations
pIC50: −log10 of the molar value.
TEST READOUT: pIC50

I. Cc1cccc(-c2ccn(-c3cc(N4CCOCC4)n4nc(-c5cc(C)nn5C)cc4n3)n2)c1
II. c1ccc(-c2cnn(-c3cc(N4CCOCC4)n4nc(-c5ccccn5)cc4n3)c2)cc1
Req: Between the entries labeled I and II , whose measured pIC50 is lower? The response must carry the label of the picked entry.
Resp: II

----------
# Tested on: HEK 293T transfected with plasmids containing TDP-43 Q331K mutation
# PROTOCOL: HEK/TDP Survival assay (Cell-Titer-Glo)
# Assay type: cell-based
# TEST CONDITIONS: Homo sapiens; HEK 293T TDP-43 Q331K, 48 hrs, CTG readout
# Protocol: HEK/TDP Survival assay: Immortalized human embryonic kidney 293T (HEK 293T) were transfected with plasmids containing TDP-43 Q331K mutation, resulting in an increase in cell death that is biologically relevant to ALS patients. Cell death is measured as reductions in the amount of ATP, an indicator of metabolically active cells, that is quantified by a luminescence Cell-Titer-Glo® (CTG) reagent. Compounds are evaluated in this model for changes in CTG compared to no treatment group. […]
TEST READOUT: EC50 (nM)
Reply with just the number (in nM).

// solved cases for EC50 follow
>  <SMILES>
Cc1cccc(-c2ccn(-c3cc(N4CCOCC4)n4nc(-c5ccccn5)cc4n3)n2)c1

>  <EC50 [nM]>
105

$$$$
>  <SMILES>
Cc1cccc(-c2ccn(-c3cc(N4CCOCC4)n4nc(C(=O)NC5CC5)cc4n3)n2)c1

>  <EC50 [nM]>
103

$$$$
>  <SMILES>
Cc1cccc(-c2ccn(-c3cc(N4CCOCC4)n4nc(C(=O)N[C@@H](C)C5CC5)cc4n3)n2)c1

>  <EC50 [nM]>
112

$$$$
>  <SMILES>
Cc1cccc(-c2ccn(-c3cc(N4CCOCC4)n4nc(-c5cccnc5)cc4n3)n2)c1

>  <EC50 [nM]>
95

$$$$
>  <SMILES>
Cc1cccc(-c2ccn(-c3cc(N4CCOCC4)n4nc(C(=O)NCCCCN(C)C)cc4n3)n2)c1

>  <EC50 [nM]>
67

$$$$
>  <SMILES>
Cc1cccc(-c2ccn(-c3cc(N4CCOCC4)n4nc(C(=O)NCC5COC5)cc4n3)n2)c1

>  <EC50 [nM]>
92

$$$$

Okay, now this compound:
Req: Name the reported EC50 value associated with the compound `Cc1cccc(-c2ccn(-c3cc(N4CCOCC4)n4nc(C(=O)NC5CCCC5)cc4n3)n2)c1`
Resp: 67

----------
# SYSTEM TESTED: Full length human recombinant PIKFYVE (Homo sapiens (Human), UniProt Q9Y2I7)
# PROTOCOL: Inhibition of PIKfyve (microfluidic electrophoresis kinase assay)
# TEST CONDITIONS: 2 nM enzyme, PI3P/PS substrate, 3 h at room temperature, 12 concentrations
TEST READOUT: IC50 (µM)

P. Cc1cccc(-c2ccn(-c3cc(N4CCOCC4)n4nc(C(=O)NC5CCN(C)CC5)cc4n3)n2)c1
Q. Cc1cc(-c2cc3nc(-n4ccc(-c5ccccc5)n4)cc(N4CCOCC4)n3n2)nn1C
R. Cc1ccccc1-c1cc(N)n(-c2cc(N3CCOCC3)n3nc(-c4ccncc4)cc3n2)n1
S. Cc1cccc(-c2ccn(-c3cc(N4CCOCC4)n4nc(C(=O)N[C@H](C)C5CC5)cc4n3)n2)c1
T. CCNC(=O)c1cc2nc(-n3ccc(-c4cccc(C)c4)n3)cc(N3CCOCC3)n2n1
Req: Descending by IC50 please, for everything listed above. Show the ranking through the labels, in the order asked for.
Resp: R, P, T, Q, S
